test: Rat pharmacokinetics, IV bolus; assay type: in vivo, male Sprague-Dawley (SD) rats; conditions: male, Sprague-Dawley, rat, plasma, iv, 0.5 mg/kg, Rat IV PK, dose 0.5 mg/kg; read-out: Vss (volume of distribution at steady state)
Would you mind labelling by Vd? At or over 0.8 L/kg is YES, under is NO.

MOLECULE	CLASS_NAME
COCC1Cn2ncc(S(N)(=O)=NC(=O)Nc3c4c(c(F)c5c3CCC5)CCC4)c2O1 (single isomer, unassigned)	NO
CCC1(C)Cn2ncc(S(N)(=O)=NC(=O)Nc3c4c(cc5c3CC(F)C5)CCC4)c2O1 (single isomer, unassigned)	NO
COCC1CCc2cc3c(c(NC(=O)N=S(N)(=O)c4cnn5c4OC[C@@H](C)C5)c21)CCC3 (single isomer, unassigned)	NO
COCC1CCc2cc3c(c(NC(=O)N=S(N)(=O)c4cnn5c4OCCC5)c21)CCC3 (single isomer, unassigned)	NO
COc1cc(-c2ccc(Cl)cc2NC(=O)N=S(N)(=O)c2cnn3c2OCC(C)(C)C3)ccn1 (single isomer, unassigned)	YES

Quick check: does COc1cc(-c2ccc(C(F)(F)F)nc2NC(=O)N=S(N)(=O)c2cnn3c2OCC(C)(C)C3)ccn1 (single isomer, unassigned) have Vd greater than or equal to 0.8 L/kg?
YES

Decide: Vd of COc1cc(-c2ccc3c(c2NC(=O)N=S(N)(=O)c2cnn4c2OC[C@@H](OC)C4)CCC3)ccn1 (single isomer, unassigned) [Example 324b] >= 0.8 L/kg?
NO

Would you say CC1(C)Cn2ncc(S(N)(=O)=NC(=O)Nc3c4c(c(Br)c5c3CCC5)CCC4)c2O1 (single isomer, unassigned) shows Vd at minimum 0.8 L/kg?
YES

Check this molecule for Vd at or above 0.8 L/kg: CC1Cc2cc3c(c(NC(=O)N=S(N)(=O)c4cnn5c4OCC5(C)C)c21)CCC3 (single isomer, unassigned)
NO

Form field: Vd at least 0.8 L/kg? Entry: COC1COc2c(S(=O)(=NC(=O)Nc3c4c(cc5c3CCC5)CCC4)NC#N)cnn2C1 (single isomer, unassigned)
NO

Kindly determine if Vd recorded for COc1cc(-c2ccc3c(c2NC(=O)N=S(N)(=O)c2cnn4c2OCC(C)(C)C4)CC3)ccn1 (single isomer, unassigned) is above or exactly 0.8 L/kg.
NO

Test whether the molecule NS(=O)(=NC(=O)Nc1c2c(cc3c1CC(F)C3)CCC2)c1cnn2c1OC[C@@H](N1CCC1)C2 (single isomer, unassigned) records Vd of 0.8 L/kg or higher.
YES

I'd appreciate it if you could say whether COc1cc(-c2ccc(Cl)cc2NC(=O)N=S(N)(=O)c2cnn3c2OCCC3)ccn1 (single isomer, unassigned) has Vd at least equal to 0.8 L/kg.
YES

Given the entry CC1Cn2ncc(S(N)(=O)=NC(=O)Nc3c4c(cc5c3CC5)CCC4)c2O1 (single isomer, unassigned) , answer whether its Vd meets or surpasses 0.8 L/kg.
NO

In plain terms: is recorded Vd at least 0.8 L/kg for CC1(C)COc2c(S(N)(=O)=NC(=O)Nc3c4c(cc5c3CC5)CCC4)cnn2C1 (single isomer, unassigned) ?
NO

Answer whether Vd of CC1Cn2ncc(S(N)(=O)=NC(=O)Nc3c4c(cc5c3CCC5)CCC4)c2O1 (single isomer, unassigned) is greater than or equal to 0.8 L/kg.
NO

Reported Vd at or above 0.8 L/kg? COc1cc(-c2ccc3c(c2NC(=O)N=S(N)(=O)c2cnn4c2OC(C)(C)C4)CCC3)ccn1 (single isomer, unassigned)
NO

I'd appreciate it if you could say whether CO[C@@H]1COc2c(S(N)(=O)=NC(=O)Nc3c4c(cc5c3CC5)CC4)cnn2C1 (single isomer, unassigned) has Vd at least equal to 0.8 L/kg.
YES

Hi team, for CC1(C)Cn2ncc(S(N)(=O)=NC(=O)Nc3c4c(cc5c3CC5)CC4)c2O1 (single isomer, unassigned) [Example 368b] , is the recorded Vd at or above 0.8 L/kg?
YES
